Kindly state Kd for each of the entries shown.
experimental.system: HLA-B*58:01
assay.procedure: IEDB peptide-MHC binding, purified MHC/direct/fluorescence; filed as Kd, often an IC50 or EC50 that approximates it; bounds were set here for any values at or beyond the usual limits of such assays
condition.parameters: source organism: Vibrio cholerae

Short answer for YFRNSGMTY : Kd was ≥ 20 µM

Short answer for DTDISQLHH : Kd was 2.68 µM

Short answer for IHYAGWVSL : Kd was ≥ 20 µM

Short answer for IVKQGRDAL : Kd was ≥ 20 µM

###

experimental.system: HLA-A*69:01
assay.procedure: IEDB peptide-MHC binding, purified MHC/direct/fluorescence; filed as Kd, often an IC50 or EC50 that approximates it; bounds were set here for any values at or beyond the usual limits of such assays
condition.parameters: source organism: Encephalitozoon cuniculi
Kindly state Kd for each of the entries shown.

Short answer for KMYEYVFKG : Kd was ≥ 20 µM

Short answer for FMRSISDDA : Kd was ≥ 20 µM

###

experimental.system: HLA-B*58:01
assay.procedure: IEDB peptide-MHC binding, purified MHC/competitive/fluorescence; filed as Kd, often an IC50 or EC50 that approximates it; bounds were set here for any values at or beyond the usual limits of such assays
condition.parameters: source organism: Shigella flexneri 5 str. 8401
metric: Kd

Short answer for FGALFMWLL : Kd was ≥ 5 µM

###

experimental.system: HLA-B*07:02
assay.procedure: IEDB peptide-MHC binding, purified MHC/direct/fluorescence; filed as Kd, often an IC50 or EC50 that approximates it; bounds were set here for any values at or beyond the usual limits of such assays
condition.parameters: source organism: Mycobacterium tuberculosis
metric: Kd

Short answer for KVMVICYAY : Kd was ≥ 20 µM

###

experimental.system: HLA-A*25:01
assay.procedure: IEDB peptide-MHC binding, purified MHC/competitive/fluorescence; filed as Kd, often an IC50 or EC50 that approximates it; bounds were set here for any values at or beyond the usual limits of such assays
condition.parameters: source organism: Yersinia pestis Nepal516
metric: Kd

Given the sequence LELIGNAES and test system HLA-A*25:01, the measured Kd is ≥ 20 µM

###

experimental.system: HLA-B*51:01
assay.procedure: IEDB peptide-MHC binding, purified MHC/competitive/fluorescence; bounds were set here for any values at or beyond the usual limits of such assays
condition.parameters: source organism: Homo sapiens
metric: IC50

Short answer for ILNRETLLDFV : IC50 was ≥ 20 µM

###

experimental.system: HLA-A*31:01
assay.procedure: IEDB peptide-MHC binding, purified MHC/direct/fluorescence; filed as Kd, often an IC50 or EC50 that approximates it; bounds were set here for any values at or beyond the usual limits of such assays
condition.parameters: source organism: Giardia lamblia ATCC 50803
metric: Kd

Short answer for PTKCGENLY : Kd was ≥ 20 µM

Short answer for KTPWDRFCK : Kd was 0.0957 µM

Short answer for EFFDTEPQL : Kd was ≥ 20 µM

Short answer for RENQVAVVR : Kd was ≥ 20 µM

###

experimental.system: HLA-B*40:01
assay.procedure: IEDB peptide-MHC binding, purified MHC/competitive/radioactivity; filed as Kd, often an IC50 or EC50 that approximates it; bounds were set here for any values at or beyond the usual limits of such assays
condition.parameters: source organism: Dengue virus 1 Brazil/97-11/1997
metric: Kd

Short answer for VELPNSLEEL : Kd was 29.2 nM

Short answer for FEKQLGQIML : Kd was 144 nM

Short answer for EELPDTIETL : Kd was 166 nM

###

experimental.system: HLA-A*69:01
assay.procedure: IEDB peptide-MHC binding, purified MHC/competitive/fluorescence; filed as Kd, often an IC50 or EC50 that approximates it; bounds were set here for any values at or beyond the usual limits of such assays
condition.parameters: source organism: Yersinia pestis Nepal516
pKd: −log10 of the molar value.
metric: pKd

Short answer for LELIGNAES : pKd was ≤ 4.70

###

experimental.system: HLA-A*31:01
assay.procedure: IEDB peptide-MHC binding, purified MHC/competitive/radioactivity; filed as Kd, often an IC50 or EC50 that approximates it; bounds were set here for any values at or beyond the usual limits of such assays
condition.parameters: source organism: Triticum aestivum
pKd: −log10 of the molar value.
metric: pKd

Given the sequence QQQQQQQQQK and test system HLA-A*31:01, the measured pKd is ≤ 4.63

###

experimental.system: HLA-A*24:02
assay.procedure: IEDB peptide-MHC binding, purified MHC/competitive/radioactivity; bounds were set here for any values at or beyond the usual limits of such assays
condition.parameters: source organism: Homo sapiens
metric: pIC50
To interpret pIC50, take it as minus log10 of a concentration measured in moles per litre.

Short answer for TYSVSFDSL : pIC50 was 6.71

###

experimental.system: HLA-A*03:01
assay.procedure: IEDB peptide-MHC binding, purified MHC/competitive/fluorescence; bounds were set here for any values at or beyond the usual limits of such assays
condition.parameters: source organism: Homo sapiens
pIC50: −log10 of the molar value.
metric: pIC50

Short answer for ILNRETLLDFV : pIC50 was ≤ 4.70

###

experimental.system: HLA-B*48:01
assay.procedure: IEDB peptide-MHC binding, purified MHC/direct/fluorescence; filed as Kd, often an IC50 or EC50 that approximates it; bounds were set here for any values at or beyond the usual limits of such assays
condition.parameters: source organism: Mycobacterium tuberculosis
metric: Kd

Short answer for KVMVICYAY : Kd was ≥ 20 µM

Short answer for RPAPATGAL : Kd was ≥ 20 µM

Short answer for YPACEAIGL : Kd was ≥ 20 µM

###

experimental.system: HLA-A*26:01
assay.procedure: IEDB peptide-MHC binding, purified MHC/direct/fluorescence; filed as Kd, often an IC50 or EC50 that approximates it; bounds were set here for any values at or beyond the usual limits of such assays
condition.parameters: source organism: Vibrio cholerae O1 biovar El Tor
metric: Kd

Short answer for FATPAFFLI : Kd was ≥ 20 µM

###

experimental.system: HLA-A*23:01
assay.procedure: IEDB peptide-MHC binding, purified MHC/competitive/radioactivity; filed as Kd, often an IC50 or EC50 that approximates it; bounds were set here for any values at or beyond the usual limits of such assays
condition.parameters: source organism: Mammarenavirus machupoense
metric: Kd

Short answer for WIEFTNFKV : Kd was ≥ 77.7 µM

Short answer for AYSKSLKELV : Kd was 16.3 µM

Short answer for AESLVGFLFY : Kd was ≥ 66.2 µM

###

Kindly state pKd for each of the entries shown.
experimental.system: HLA-A*33:01
assay.procedure: IEDB peptide-MHC binding, purified MHC/competitive/radioactivity; filed as Kd, often an IC50 or EC50 that approximates it; bounds were set here for any values at or beyond the usual limits of such assays
condition.parameters: source organism: Dengue virus 3 Martinique/1243/1999
To interpret pKd, take it as minus log10 of a concentration measured in moles per litre.

Short answer for MVSRLLLNR : pKd was 8.08

Short answer for EYRLKGESR : pKd was 7.73

Short answer for FLALGFFLR : pKd was 7.58

Short answer for SIFAGHLKCR : pKd was 6.94

###

experimental.system: HLA-A*26:01
assay.procedure: IEDB peptide-MHC binding, purified MHC/competitive/radioactivity; filed as Kd, often an IC50 or EC50 that approximates it; bounds were set here for any values at or beyond the usual limits of such assays
condition.parameters: source organism: Mammarenavirus mopeiaense
pKd: −log10 of the molar value.
metric: pKd

Given the sequence LCLSGEGWPY and test system HLA-A*26:01, the measured pKd is ≤ 4.16

###

experimental.system: HLA-C*03:03
assay.procedure: IEDB peptide-MHC binding, purified MHC/direct/fluorescence; filed as Kd, often an IC50 or EC50 that approximates it; bounds were set here for any values at or beyond the usual limits of such assays
condition.parameters: source organism: Yersinia pestis Nepal516
metric: Kd (nM)
Write the answer as a number in nM, unit excluded.

Given the sequence YVIKKSSPL and test system HLA-C*03:03, the measured Kd is 2

###

experimental.system: HLA-A*02:01
assay.procedure: IEDB peptide-MHC binding, purified MHC/competitive/radioactivity; filed as Kd, often an IC50 or EC50 that approximates it; bounds were set here for any values at or beyond the usual limits of such assays
condition.parameters: source organism: Dengue virus 1 Singapore/S275/1990
Kindly state pKd for each of the entries shown.
To interpret pKd, take it as minus log10 of a concentration measured in moles per litre.

Short answer for KLARASFIEV : pKd was 7.83

Short answer for GLLFMILTV : pKd was 7.37

Short answer for LMLLALIAVL : pKd was 7.02

Short answer for TMKEKSWLV : pKd was 7.26

###

experimental.system: HLA-B*18:01
assay.procedure: IEDB peptide-MHC binding, purified MHC/competitive/fluorescence; filed as Kd, often an IC50 or EC50 that approximates it; bounds were set here for any values at or beyond the usual limits of such assays
condition.parameters: source organism: Giardia lamblia ATCC 50803
pKd: −log10 of the molar value.
Kindly state pKd for each of the entries shown.

Given the sequence AILAGEHKC and test system HLA-B*18:01, the measured pKd is ≤ 4.70

Given the sequence ISKANWMTY and test system HLA-B*18:01, the measured pKd is ≤ 4.70

Given the sequence IANTTDHFF and test system HLA-B*18:01, the measured pKd is ≤ 4.70
